Assignment: determine reported TGI for the given compounds.
- Tested on: MDA-MB-468 breast
- experimental.details: NCI tumour cell line growth inhibition, 48 h
I only need the number, in nM, no unit after it.

[in] Provide only the value of recorded TGI for COc1ccc(-c2nn(-c3cccc(Cl)c3)cc2-c2c(C#N)c(=O)n3[nH]c(-c4ccc(C)cc4)nc3c2C#N)cc1
[out] 2880

[in] Fill in reported TGI for this entry: COc1ccc2c3c(c4ccccc4cc13)C(=O)N(CCN(C)CCN)C2=O
[out] 1160

[in] Please report the measured TGI for O=CC(Br)C(Br)c1ccccc1 (stereo not given)
[out] 3650

[in] Please give the documented TGI of CCCC(=O)NC(c1cccnc1)c1cc(C(C)(C)C)c2cccnc2c1O (stereo not given)
[out] 8980

[in] Answer with the recorded TGI of COc1ccc2c(c1)c(/C=N/Nc1ccc3ccccc3n1)cn2C only.
[out] 16100

[in] Hello, please tell me recorded TGI for this one: CSc1n(Cc2ccc3ccccc3c2)c(C)c[n+]1Cc1ccc2ccccc2c1
[out] 672

[in] Consider the compound CCN(CC)CCCC(C)Nc1c2ccc(Cl)cc2nc2cc(OC)c(OC)cc12 (stereo not given) . State its measured TGI.
[out] 2830

====

- System: MDA-MB-468 breast
- experimental.details: NCI tumour cell line growth inhibition, 48 h
experimental.readout: TGI (µM)
Unit µM implied. Number only.

[in] Check MDA-MB-468 breast data and give TGI for CC(C)(C)NCCC(O)c1cc2c(Cl)cc(Cl)cc2c2cc(C(F)(F)F)ccc12 (centres undefined) .
[out] 3.06

[in] Given CN1C(=O)C(=Cc2cn(Cc3ccccc3)c3ccccc23)C(=O)N(C)C1=O , report its TGI on MDA-MB-468 breast.
[out] 0.158

[in] Jot down TGI (MDA-MB-468 breast) of CCCCOC(=O)c1ccc(NC(=O)CCl)cc1 .
[out] 4.08

====

- Test system: MDA-MB-468 breast
- experimental.details: NCI tumour cell line growth inhibition, 48 h
Provide the reported GI50 of each item.

[in] Complete the entry with GI50 for CCCCOC(=O)c1ccc(NC(=O)CCl)cc1
[out] 1780 nM

[in] Give me measured GI50, please, for this molecule: CC(C)(C)NCCC(O)c1cc2c(Cl)cc(Cl)cc2c2cc(C(F)(F)F)ccc12 (stereo unspecified)
[out] 1590 nM

[in] Look up and state reported GI50 for COc1cc2c(cc1OC)-c1ccc3cc4c(cc3c1N(CCN(C)C)C2)OCO4
[out] 210 nM

[in] Give the reported value of GI50 for this record: O=C1NC(=O)C(c2ccc(Cl)cc2)=C1Nc1ccc(Cl)c(C(=O)O)c1
[out] > 25000 nM

[in] Specify measured GI50 for COc1ccc([I+]c2ccccc2)cc1 .
[out] 253 nM

[in] Name the recorded GI50 of the item CCN(CC)CCCC(C)Nc1c2ccc(Cl)cc2nc2cc(OC)c(OC)cc12 (stereo unspecified) in your answer.
[out] 1300 nM

[in] Identify measured GI50 corresponding to Cc1cc([N+](=O)[O-])ccc1NS(=O)(=O)c1cc(Cl)ccc1Cl
[out] 1660 nM

[in] Provide measured GI50 value, entry: Oc1ccc2ccccc2c1C1NN=C(c2ccccc2)S1 (stereo unspecified)
[out] 536 nM

[in] Given the molecule COc1ccc2c(c1)c1nc3cc(C)c(C)cc3nc1n2CCN(C)C , write its reported GI50.
[out] 761 nM

[in] Please list GI50 recorded for the molecule Cn1c(/C=C(\C#N)c2cccc(C(F)(F)F)c2)nc2c(N3CCOCC3)nc(Cl)nc21
[out] 432 nM

[in] Specify measured GI50 for c1cncc(-c2nc3ccccc3s2)c1 .
[out] > 100000 nM

[in] Look up GI50 of Cc1cc(Nc2ccc(F)cc2)nc(N2CCN(c3ccnc4cc(Cl)ccc34)CC2)n1 and report it.
[out] 2720 nM

[in] # return recorded GI50 for entry CN1C(=O)C(=Cc2cn(Cc3ccccc3)c3ccccc23)C(=O)N(C)C1=O
[out] 63.9 nM

[in] Give the reported GI50 for this molecule. CCOc1ccc2nc(-c3cccc(OCC(=O)NC(C)C)c3)nc(Nc3ccc(-c4cn[nH]c4)cc3)c2c1
[out] 2310 nM

[in] Provide measured GI50 value, entry: CCCOC(=O)N[C@H]1CCc2cc(OC)c(OC)c(OC)c2-c2ccc(SC)c(=O)cc21
[out] < 10 nM

[in] Answer with reported GI50 of Nc1nc2ccc3[nH]ncc3c2c2c1CCCC2
[out] 1460 nM
